Provenance of the data: paper PMC9531272

- target_of_assay: Xanthine oxidase (XO) (Bos taurus)
- Construct: purchased Sigma-Aldrich (Shanghai, P. R. China)
- Sequence (P80457 whole entry): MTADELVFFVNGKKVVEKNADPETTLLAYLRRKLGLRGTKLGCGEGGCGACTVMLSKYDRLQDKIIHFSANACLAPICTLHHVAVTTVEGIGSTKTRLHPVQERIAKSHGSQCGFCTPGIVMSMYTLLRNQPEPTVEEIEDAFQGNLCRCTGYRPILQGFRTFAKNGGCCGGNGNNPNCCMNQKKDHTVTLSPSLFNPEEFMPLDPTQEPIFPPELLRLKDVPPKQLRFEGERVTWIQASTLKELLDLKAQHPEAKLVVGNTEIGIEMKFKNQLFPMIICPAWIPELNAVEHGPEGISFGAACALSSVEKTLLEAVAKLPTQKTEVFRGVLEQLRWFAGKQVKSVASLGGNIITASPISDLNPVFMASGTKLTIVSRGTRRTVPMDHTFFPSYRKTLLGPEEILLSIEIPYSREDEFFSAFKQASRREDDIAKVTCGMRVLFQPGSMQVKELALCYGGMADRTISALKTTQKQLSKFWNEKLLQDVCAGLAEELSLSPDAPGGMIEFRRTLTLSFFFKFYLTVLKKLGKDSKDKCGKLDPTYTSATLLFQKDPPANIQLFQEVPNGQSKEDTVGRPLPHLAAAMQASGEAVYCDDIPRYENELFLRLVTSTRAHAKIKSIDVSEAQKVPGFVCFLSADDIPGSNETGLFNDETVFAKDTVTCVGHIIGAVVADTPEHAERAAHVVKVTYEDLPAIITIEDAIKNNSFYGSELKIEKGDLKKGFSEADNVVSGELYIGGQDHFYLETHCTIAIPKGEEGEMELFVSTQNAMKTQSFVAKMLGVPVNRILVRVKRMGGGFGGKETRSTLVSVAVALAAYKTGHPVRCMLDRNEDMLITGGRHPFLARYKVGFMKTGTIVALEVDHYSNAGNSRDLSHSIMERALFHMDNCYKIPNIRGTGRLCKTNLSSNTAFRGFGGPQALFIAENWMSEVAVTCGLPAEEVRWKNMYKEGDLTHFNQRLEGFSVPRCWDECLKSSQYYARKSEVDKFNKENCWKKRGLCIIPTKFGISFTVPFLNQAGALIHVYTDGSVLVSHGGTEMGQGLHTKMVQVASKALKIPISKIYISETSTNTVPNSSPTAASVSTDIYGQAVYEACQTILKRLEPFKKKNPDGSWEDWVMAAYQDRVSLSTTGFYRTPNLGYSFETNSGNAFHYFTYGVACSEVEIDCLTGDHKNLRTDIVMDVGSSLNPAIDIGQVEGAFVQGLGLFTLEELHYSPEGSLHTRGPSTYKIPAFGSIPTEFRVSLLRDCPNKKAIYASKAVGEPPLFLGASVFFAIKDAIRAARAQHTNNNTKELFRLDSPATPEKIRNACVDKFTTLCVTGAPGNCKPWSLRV
- protocol: Determination of inhibition type (Line-weaver Burk plot)
- Type: biochemical
- measurement_context: Line-weaver Burk plot analysis toward XO
parameter: Inhibition type

Some entries whose results are on file:
{"columns": ["compound", "Inhibition type"],
 "data": [
  ["O=C(/C=C/c1ccc(O)c(O)c1)O[C@H]1[C@H](O)C[C@](O)(C(=O)O)C[C@H]1O", "Competitive"],
  ["O=C(/C=C/c1ccc(O)c(O)c1)O[C@H]1[C@H](O)C[C@](O)(C(=O)O)C[C@H]1OC(=O)/C=C/c1ccc(O)c(O)c1", "Competitive"],
  ["O=C(/C=C/c1ccc(O)c(O)c1)O[C@@H]1[C@H](O)C[C@@](O)(C(=O)O)C[C@H]1OC(=O)/C=C/c1ccc(O)c(O)c1", "Mixed"],
  ["O=C(/C=C/c1ccc(O)c(O)c1)O[C@@H]1CC(O)(C(=O)O)C[C@@H](OC(=O)/C=C/c2ccc(O)c(O)c2)C1O (stereo partly shown)", "Competitive"],
  ["O=C(/C=C/c1ccc(O)c(O)c1)O[C@@H]1C[C@](O)(C(=O)O)C[C@@H](O)[C@H]1O", "Competitive"]
]}

Asked: Please tell me: Inhibition type of C[C@@H]1O[C@@H](Oc2c(-c3ccc(O)c(O)c3)oc3cc(O)cc(O)c3c2=O)[C@H](O)[C@H](O)[C@H]1O [C2, quercetin-3-rhamnoside] , system Xanthine oxidase (XO) (Bos taurus)?
Given back: Competitive

Asked: Ok, now O=c1c(O)c(-c2ccc(O)c(O)c2)oc2cc(O)cc(O)c12
Given back: Mixed
